# target: Tec kinase (Homo sapiens)
# Sequence (P42680 whole entry): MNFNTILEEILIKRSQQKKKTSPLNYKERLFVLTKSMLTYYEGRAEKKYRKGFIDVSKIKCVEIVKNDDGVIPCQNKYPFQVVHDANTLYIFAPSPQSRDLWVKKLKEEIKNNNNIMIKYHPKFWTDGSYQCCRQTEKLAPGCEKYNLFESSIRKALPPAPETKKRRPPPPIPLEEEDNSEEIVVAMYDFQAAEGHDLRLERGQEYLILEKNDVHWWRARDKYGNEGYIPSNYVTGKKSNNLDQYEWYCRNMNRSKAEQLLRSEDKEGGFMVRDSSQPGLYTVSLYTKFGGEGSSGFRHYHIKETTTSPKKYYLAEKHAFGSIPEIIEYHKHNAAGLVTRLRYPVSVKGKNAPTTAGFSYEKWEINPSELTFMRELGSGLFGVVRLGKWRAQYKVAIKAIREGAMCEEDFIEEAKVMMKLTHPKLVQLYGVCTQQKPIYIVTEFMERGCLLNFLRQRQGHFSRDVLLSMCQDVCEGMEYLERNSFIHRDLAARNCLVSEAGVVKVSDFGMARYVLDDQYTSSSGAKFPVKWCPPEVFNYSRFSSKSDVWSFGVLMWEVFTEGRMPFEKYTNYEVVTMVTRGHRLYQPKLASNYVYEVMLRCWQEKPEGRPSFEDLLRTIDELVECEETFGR
# test protocol: Tec Kinase Activity Assay
# Assay type: biochemical
# assay setup: read-out: Tec % INH, at 30 uM
experimental endpoint: inhibition at 30 µM

So what does the record say about inhibition at 30 µM for Cc1ccc(CCCN2CCN(c3nc(N)nc4[nH]cnc34)Cc3ccccc32)cc1 ? < 50%

Name the reported inhibition at 30 µM value associated with the compound Nc1nc(N2CCN(CCCc3cccc(Cl)c3)c3ccccc3C2)c2cn[nH]c2n1 > 79%

Looking for the measured inhibition at 30 µM of CC(C)c1ccc(CN2CCN(c3nc(N)nc4[nH]cnc34)Cc3ccccc32)cc1 , can you help? < 50%
